Experiment: Selectivity ratio of IC50 for anticancer activity against human BEAS-2B cells to IC50 for anticancer activity against human A549 cells
Type: toxicity, cell-based
Conditions: BEAS-2B cells versus A549 cells, read-out: Ratio IC50
The reader will find reported selectivity ratio values listed item by item below.

COMPOUND | selectivity ratio
C=C(c1ccc(Cl)c(Cl)c1Cl)C1COC2(CCCCC2)OO1 (stereo unspecified) | 7.51
C=C(c1ccc(Cl)cc1Cl)C1COC2(CCCC2)OO1 (stereo unspecified) | 12.2
C=C(c1ccc(Cl)c(Cl)c1Cl)C1COC2(OO1)C1CC3CC(C1)CC2C3 (stereo unspecified) | 1.17
C=C(c1ccc(F)c(F)c1)C1COC2(CCCCC2)OO1 (stereo unspecified) | 1.26
C=C(c1ccc(OC)c(F)c1)C1COC2(CCCCC2)OO1 (stereo unspecified) | 5.77
C=C(c1ccc(F)cc1F)C1COC2(CCCCC2)OO1 (stereo unspecified) | 11.5
